B1: Cytochrome c-551, P00099 (parent)
chain: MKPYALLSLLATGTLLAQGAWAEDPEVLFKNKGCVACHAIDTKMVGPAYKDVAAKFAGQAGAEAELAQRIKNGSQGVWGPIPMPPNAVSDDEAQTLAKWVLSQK

- Variants of: B1
- study conditions: Pseudomonas aeruginosa (strain ATCC 15692 / DSM 22644 / CIP 104116 / JCM 14847 / LMG 12228 / 1C / PRS 101 / PAO1); pH 3.6; 25 °C; GdnHCl; CD; Sodium acetate 20 mM; structure 451C; whole UniProt chain shown
I'd appreciate it if you marked entries Met when unfolding free energy is lower than 6 kcal/mol and Not met when it is not.

[[record]]
mutant_designation = "V100I"
qualitative_label = "Met"


Query: Identify whether the variant F29A V35M F56Y E65Y records unfolding free energy below 6 kcal/mol.
Reply: Not met

Query: Identify whether the variant F56Y E65Y records unfolding free energy below 6 kcal/mol.
Reply: Met

Query: Identify whether the variant F29A V35M records unfolding free energy below 6 kcal/mol.
Reply: Met

Query: Identify whether the variant F56Y E65Y V100I records unfolding free energy below 6 kcal/mol.
Reply: Met

Query: Identify whether the variant E65Y records unfolding free energy below 6 kcal/mol.
Reply: Met

Query: Identify whether the variant F56Y records unfolding free energy below 6 kcal/mol.
Reply: Met

Query: Identify whether the variant F29A V35M F56Y E65Y V100I records unfolding free energy below 6 kcal/mol.
Reply: Not met
